Values compiled from the supplement of paper PMC10567573.

B1: WDFY2 (parent)
chain: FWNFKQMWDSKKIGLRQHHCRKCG

Variants of: B1
Assay: protein stability index of a GFP-peptide fusion (GPS, HEK-293T) (PSI 1-6); higher = more stable;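 note: lentivirally expressed fusions sorted by FACS into six bins by GFP to DsRed ratio, PSI derived from sequencing read proportions per bin multiplied by bin number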
Conditions: c terminus: a fixed tail appended
measured-attribute: protein stability index
Form field (numeric): enter value without unit.

Before answering, review these 3 worked examples.
{"columns": ["sequence-code", "protein stability index"],
 "data": [
  ["FWNFKQMWDSKPIGLRQHHCRKCG [K12P]", 2.03],
  ["FWNFKQMWDSKKIGARQHHCRKCG [L15A]", 2.01],
  ["FWNFKQMWDSFKIGLRQHHCRKCG [K11F]", 2.48]
]}

Tell me measured protein stability index for FMNFKQMWDSKKIGLRQHHCRKCG [W2M] please.
2.39

Tell me measured protein stability index for FWNFKQMWDSKKIGERQHHCRKCG [L15E] please.
2.48

Tell me measured protein stability index for FWNFKQMWDSKKIVLRQHHCRKCG [G14V] please.
2

Tell me measured protein stability index for FQNFKQMWDSKKIGLRQHHCRKCG [W2Q] please.
1.19

Tell me measured protein stability index for FWNKKQMWDSKKIGLRQHHCRKCG [F4K] please.
1.46

Tell me measured protein stability index for FWNFKQMWDSKKIGLGQHHCRKCG [R16G] please.
1.54

Tell me measured protein stability index for FWNFKQMWDSKKIGLRQHHCAKCG [R21A] please.
2.34
